- System: SUM159PT
- experiment notes: -log10 GI50 (growth inhibition 50%) (-log10(M)); higher = more potent growth inhibition
Mark criterion not met for -log10 GI50 values under 6, and criterion met for everything at or above.

// inclusive: -log10 GI50 at least 6? input: Cn1c(=O)n(-c2ccc(C(C)(C)C#N)cc2)c2c3cc(-c4cnc5ccccc5c4)ccc3ncc21
criterion met

// inclusive: -log10 GI50 at least 6? input: N#Cc1c(-c2ccccc2)cc(-c2cc(Br)ccc2O)[nH]c1=O
criterion not met

// inclusive: -log10 GI50 at least 6? input: NS(=O)(=O)OC[C@@H]1C[C@@H](n2ccc3c(N[C@H]4CCc5ccccc54)ncnc32)C[C@@H]1O
criterion met

// inclusive: -log10 GI50 at least 6? input: CC(=O)O[C@H]1C(=O)[C@@]2(C)[C@H]([C@H](OC(=O)c3ccccc3)[C@]3(O)C[C@H](OC(=O)[C@H](O)[C@@H](NC(=O)c4ccccc4)c4ccccc4)C(C)=C1C3(C)C)[C@]1(OC(C)=O)CO[C@@H]1C[C@@H]2O
criterion met

// inclusive: -log10 GI50 at least 6? input: CC(C)C[C@@H](C=O)NC(=O)[C@H](CC(C)C)NC(=O)[C@H](CC(C)C)NC(=O)OCc1ccccc1
criterion met

// inclusive: -log10 GI50 at least 6? input: O=C(c1ccc(Nc2nccc(-c3cc4ccccc4s3)n2)cc1)N1CCC(N2CCCC2)CC1
criterion not met

// inclusive: -log10 GI50 at least 6? input: CC(=O)NCC(=O)N1[C@@H]2CC[C@H]1c1ccc(Nc3ncc(C(F)(F)F)c(NC4CCC4)n3)cc12
criterion met

// inclusive: -log10 GI50 at least 6? input: O=c1[nH]c2ccccc2n1C1CCN(Cc2ccc(-c3[nH]c4cc5ncnc5cc4nc3-c3ccccc3)cc2)CC1
criterion not met

// inclusive: -log10 GI50 at least 6? input: O=C1c2ccccc2-[n+]2ccc3c([nH]c4ccccc43)c21
criterion met

// inclusive: -log10 GI50 at least 6? input: CC[C@H](CO)Nc1nc(NCc2ccccc2O)c2ncn(C(C)C)c2n1
criterion not met

// inclusive: -log10 GI50 at least 6? input: CC[C@@]1(O)C(=O)OCc2c1cc1n(c2=O)Cc2cc3c(CN(C)C)c(O)ccc3nc2-1
criterion met

// inclusive: -log10 GI50 at least 6? input: COc1ccc(C2=N[C@@H](c3ccc(Cl)cc3)[C@@H](c3ccc(Cl)cc3)N2C(=O)N2CCNC(=O)C2)c(OC(C)C)c1
criterion not met

// inclusive: -log10 GI50 at least 6? input: CC(=O)Nc1cccc(-n2c(=O)n(C3CC3)c(=O)c3c(Nc4ccc(I)cc4F)n(C)c(=O)c(C)c32)c1
criterion met

// inclusive: -log10 GI50 at least 6? input: Cc1cc(Nc2cc(N3CCN(C)CC3)nc(Sc3ccc(NC(=O)C4CC4)cc3)n2)n[nH]1
criterion met

// inclusive: -log10 GI50 at least 6? input: CCC[C@H](N[C@H]1CCc2cc(F)cc(F)c2C1)C(=O)Nc1cn(C(C)(C)CNCC(C)(C)C)cn1
criterion not met

// inclusive: -log10 GI50 at least 6? input: CS(=O)(=O)CCNCc1ccc(-c2ccc3ncnc(Nc4ccc(OCc5cccc(F)c5)c(Cl)c4)c3c2)o1
criterion not met

// inclusive: -log10 GI50 at least 6? input: CC(/C=C/C(=O)NO)=C\[C@@H](C)C(=O)c1ccc(N(C)C)cc1
criterion not met

// inclusive: -log10 GI50 at least 6? input: COc1cc2ncnc(Nc3ccc(F)c(Cl)c3)c2cc1OCCCN1CCOCC1
criterion not met

// inclusive: -log10 GI50 at least 6? input: CO[C@H]1C[C@@H]2CC[C@@H](C)[C@@](O)(O2)C(=O)C(=O)N2CCCC[C@H]2C(=O)O[C@H]([C@H](C)C[C@@H]2CC[C@@H](OCCO)[C@H](OC)C2)CC(=O)[C@H](C)/C=C(\C)[C@@H](O)[C@@H](OC)C(=O)[C@H](C)C[C@H](C)/C=C/C=C/C=C/1C
criterion met

// inclusive: -log10 GI50 at least 6? input: CC(C(C)N1CC(=O)NC(=O)C1)N1CC(=O)NC(=O)C1 (stereo unspecified)
criterion met

// inclusive: -log10 GI50 at least 6? input: O=c1cc(-c2ccccc2)oc2cc(O)c(O)c(O)c12
criterion not met

// inclusive: -log10 GI50 at least 6? input: NS(=O)(=O)c1ccc(Nc2nc(OCC3CCCCC3)c3[nH]cnc3n2)cc1
criterion not met

// inclusive: -log10 GI50 at least 6? input: Nc1ccn([C@@H]2O[C@H](CO)[C@@H](O)C2(F)F)c(=O)n1
criterion met

// inclusive: -log10 GI50 at least 6? input: O=C1NC(=O)/C(=C/c2ccc(-c3ccc(F)cc3O)o2)S1
criterion not met

// inclusive: -log10 GI50 at least 6? input: CCNCCCCNCCCCNCCCCNCCCCNC/C=C/CNCCCCNCCCCNCCCCNCCCCNCC
criterion met

// inclusive: -log10 GI50 at least 6? input: N.N.[Cl][Pt][Cl] [Cisplatin]
criterion not met

// inclusive: -log10 GI50 at least 6? input: C/C(=C\c1csc(C)n1)[C@@H]1C[C@@H]2O[C@]2(C)CCC[C@H](C)[C@H](O)[C@@H](C)C(=O)C(C)(C)[C@@H](O)CC(=O)N1 [Ixabepilone]
criterion met

// inclusive: -log10 GI50 at least 6? input: CCN(CC)CCNC(=O)c1c(C)[nH]c(/C=C2\C(=O)Nc3ccc(F)cc32)c1C [Sunitinib malate]
criterion not met

// inclusive: -log10 GI50 at least 6? input: O=C1C(Cl)=C(NCCN2CCOCC2)C(=O)c2ncccc21
criterion not met

// inclusive: -log10 GI50 at least 6? input: CCc1c2c(nc3ccc(OC(=O)N4CCC(N5CCCCC5)CC4)cc13)-c1cc3c(c(=O)n1C2)COC(=O)[C@]3(O)CC
criterion not met
